Target: PI3Kδ (Homo sapiens)
Sequence (O00329 whole entry): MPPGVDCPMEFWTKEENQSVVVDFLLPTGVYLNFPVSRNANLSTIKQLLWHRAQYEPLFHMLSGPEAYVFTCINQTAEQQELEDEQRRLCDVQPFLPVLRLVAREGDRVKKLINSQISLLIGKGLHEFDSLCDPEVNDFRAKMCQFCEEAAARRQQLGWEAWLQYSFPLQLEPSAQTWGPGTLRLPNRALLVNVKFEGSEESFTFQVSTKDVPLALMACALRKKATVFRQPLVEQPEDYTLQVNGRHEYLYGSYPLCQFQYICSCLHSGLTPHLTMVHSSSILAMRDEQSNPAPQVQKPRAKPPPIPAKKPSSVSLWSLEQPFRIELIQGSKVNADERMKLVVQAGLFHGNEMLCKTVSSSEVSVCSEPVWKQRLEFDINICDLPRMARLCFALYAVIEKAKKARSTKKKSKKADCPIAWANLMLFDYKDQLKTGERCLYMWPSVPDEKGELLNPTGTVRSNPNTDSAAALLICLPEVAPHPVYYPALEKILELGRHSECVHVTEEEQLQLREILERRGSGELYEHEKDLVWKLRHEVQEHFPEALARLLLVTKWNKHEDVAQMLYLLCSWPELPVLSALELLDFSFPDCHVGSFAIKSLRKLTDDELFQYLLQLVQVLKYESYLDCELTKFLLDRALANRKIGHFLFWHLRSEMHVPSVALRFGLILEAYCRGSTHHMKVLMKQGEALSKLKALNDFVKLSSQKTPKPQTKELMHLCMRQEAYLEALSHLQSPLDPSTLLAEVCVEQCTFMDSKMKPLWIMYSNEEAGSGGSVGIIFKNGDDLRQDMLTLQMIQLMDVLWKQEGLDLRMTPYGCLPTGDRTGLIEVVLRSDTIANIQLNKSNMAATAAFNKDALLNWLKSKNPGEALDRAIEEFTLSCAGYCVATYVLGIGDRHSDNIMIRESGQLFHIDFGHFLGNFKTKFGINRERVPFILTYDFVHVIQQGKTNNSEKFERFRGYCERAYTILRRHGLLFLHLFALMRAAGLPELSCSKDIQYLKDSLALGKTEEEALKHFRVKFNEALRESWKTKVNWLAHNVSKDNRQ
Field: pKd. Provide a value for each of the molecules that follow.
Give bare numbers, as −log10 of the molar value.

Look up pKd for the entries below, preserving their order.
1. CC(Oc1cccc(F)c1)c1cc(C(=O)N(C)C)cc2ncc(N3CCOCC3)nc12 (racemic) [Compound 339]
2. CC(Nc1cc(F)c(F)c(F)c1)c1cc(C(=O)N2CCCN(C(C)C)CC2)cc2ncc(N3CCOCC3)nc12 (single isomer, unassigned) [Compound 388b]
3. CNCCNC(=O)c1cc(C(C)Oc2cc(F)cc(F)c2)c2nc(N3CCOCC3)cnc2c1 (single isomer, unassigned) [Compound 165]
4. CC(Nc1cccc(F)c1)c1cc(C(=O)NC[C@@H](C)O)cc2ncc(N3CCOCC3)nc12 (some centres unmarked) [Compound 338]

Completion:
1. 5.61
2. 6.70
3. 6.74
4. 5.53

---

Target: UniProt:P42345
Field: pKd. Provide a value for each of the compounds that follow.
Give bare numbers, as −log10 of the molar value.

Below: 5 compounds and their reported pKd.
compound	pKd
CN(CCO)C(=O)c1cc(C2CCCN2c2cc(F)cc(F)c2)c2nc(N3CCOCC3)cnc2c1 (centres unmarked)	5.05
CC(O)c1cc(C2CCCN2c2cc(F)cc(F)c2)c2nc(N3CCOCC3)cnc2c1 (centres unmarked)	4.77
O=C(NCCO)c1cc(NCc2cccc(F)c2)c2nc(N3CCOCC3)cnc2c1	4.92
CC(Nc1cc(F)cc(F)c1)c1cc(C(=O)NC[C@H](C)O)cc2ncc(N3CCOCC3)nc12 (single isomer, unassigned) [Compound 246a]	4.57
O=C(O)c1cc(C2CCCN2c2cc(F)cc(F)c2)c2nc(N3CCOCC3)cnc2c1 (centres unmarked)	5.69

Look up pKd for the entries below, preserving their order.
1. CC(Nc1cc(F)cc(F)c1)c1cc(C(=O)NS(N)(=O)=O)cc2ncc(N3CCOCC3)nc12 (centres unmarked) [Compound 243]
2. CC(Nc1cccc(F)c1)c1cc(C(=O)NCC(=O)O)cc2ncc(N3CCOCC3)nc12 (single isomer, unassigned) [Compound 393a]
3. CC(Oc1ccc(F)c(F)c1)c1cc(C(=O)N2CCN3CCC[C@H]3C2)cc2ncc(N3CCOCC3)nc12 (single isomer, unassigned) [Compound 369a]
4. Cc1ccc(NC(C)c2cc(C(=O)NCCO)cc3ncc(N4CCOCC4)nc23)cc1F (single isomer, unassigned) [Compound 295a]
5. CC(Nc1ccc(F)c(F)c1)c1cc(C(=O)NCCO)cc2ncc(N3CCOCC3)nc12 (centres unmarked) [Compound 279]
6. CC(Oc1cccc(F)c1)c1cc(C(=O)N(C)C)cc2ncc(N3CCOCC3)nc12 (racemic) [Compound 339]

Completion:
[5.72, 5.17, 4.60, 4.84, 4.72, 4.79]

---

Observed pKd values for kinase enzymes (Homo sapiens, UniProt P48736) are listed in what follows.
pKd: −log10 of the molar value.

Below: 2 compounds and their reported pKd.
compound	pKd
CC(Nc1cc(F)cc(F)c1)c1cc(CN2C[C@@H](C)O[C@@H](C)C2)cc2ncc(N3CCOCC3)nc12 (single isomer, unassigned) [Compound 206]	< 4.52
CNCCOCCN(C)C(=O)c1cc(C(C)Nc2ccc(F)c(F)c2)c2nc(N3CCOCC3)cnc2c1 (single isomer, unassigned) [Compound 345b]	< 4.52

Continue with the compound presented below.
Prompt: What value of pKd has been recorded for this entry: COC(=O)c1cc(C(C)Nc2cccc(F)c2)c2nc(N3CCOCC3)cnc2c1 (single isomer, unassigned) [Compound 262b]
Completion: < 4.52
